EXPERIMENTAL SYSTEM: Brd4 bromodomain 1 (BRD4(1)) (Homo sapiens, UniProt O60885)
PROCEDURE DETAILS: Inhibition of tetra-acetylated histone H4 binding to Brd4 bromodomain 1 (TR-FRET)
MEASUREMENT CONDITIONS: tetra-acetylated histone H4 peptide, first bromodomain of Brd4
RESULT TYPE: IC50

Worked cases, answers included:
STRUCTURE STRING	EXPERIMENTAL SYSTEM	VALUE OBSERVED
Cc1noc(C)c1-c1cc(N)c2nc(N3CCCC3)n(Cc3ccccc3)c2c1	Brd4 bromodomain 1 (BRD4(1)) (Homo sapiens, UniProt O60885)	≤ 300 nM
Cc1noc(C)c1-c1cnc2nc(NC3CCN(C)CC3)n(Cc3ccccc3)c2c1	Brd4 bromodomain 1 (BRD4(1)) (Homo sapiens, UniProt O60885)	≤ 300 nM
Cc1noc(C)c1-c1ccc2oc(=O)n(Cc3ccccc3)c2c1	Brd4 bromodomain 1 (BRD4(1)) (Homo sapiens, UniProt O60885)	300 to 3000 nM
Cc1noc(C)c1-c1cnc2nc(C)n(Cc3ccc(C(N)=O)cc3)c2c1	Brd4 bromodomain 1 (BRD4(1)) (Homo sapiens, UniProt O60885)	≤ 300 nM
Cc1noc(C)c1-c1cnc2[nH]c(=O)n([C@@H](C)c3ccccc3)c2c1	Brd4 bromodomain 1 (BRD4(1)) (Homo sapiens, UniProt O60885)	300 to 3000 nM

Lab note: next molecule to report on.
Field request: IC50 | item: Cc1noc(C)c1-c1cnc2nc(C)n(Cc3ccc(Cl)cc3)c2c1
≤ 300 nM

----------
Listed here are molecules together with their documented pIC50.
EXPERIMENTAL SYSTEM: Brd4 bromodomain 1 (BRD4(1)) (Homo sapiens, UniProt O60885)
Construct: made in house; host or cells: E. coli BL21(DE3)
PROCEDURE DETAILS: Inhibition of tetra-acetylated histone H4 binding to Brd4 bromodomain 1 (TR-FRET)
MEASUREMENT CONDITIONS: tetra-acetylated histone H4 peptide, first bromodomain of Brd4
pIC50: −log10 of the molar value.

Worked cases, answers included:
STRUCTURE STRING	pIC50
Cc1noc(C)c1-c1cc(Br)c2nc(C)n(CCOc3ccccc3)c2c1	5.52 to 6.52
Cc1noc(C)c1-c1cc(N)c2nc(C)n([C@H](C)c3ccccc3)c2c1	≥ 6.52
Cc1noc(C)c1-c1cc(Br)c2nc(C)n(CCc3ccccc3)c2c1	≥ 6.52
Cc1noc(C)c1-c1cnc2ccn(Cc3ccccc3)c2c1	≥ 6.52
COCCCNc1nc2ncc(-c3c(C)noc3C)cc2n1Cc1ccccc1	≥ 6.52

Lab note: next molecule to report on.
Field request: pIC50 | item: Cc1noc(C)c1-c1cnc2nc(NCCN3CCOCC3)n(Cc3ccccc3)c2c1
≥ 6.52

----------
Listed here are compounds together with their documented IC50.
System: hIL-17 mRNA
PROCEDURE DETAILS: Inhibition of hIL-17 mRNA transcription in OKT3-stimulated peripheral blood mononuclear cells
Type: cell-based
MEASUREMENT CONDITIONS: PBMC, human peripheral blood mononuclear cells, OKT3 antibody, 6 h, read-out: IL-17 activity

COMPOUND	IC50
Cc1noc(C)c1-c1cnc2c(C)nn(Cc3ccc(F)cc3)c2c1	3000 to 30000 nM

Field request: IC50 | item: CCNc1nc2c(N)cc(-c3c(C)noc3C)cc2n1Cc1ccccc1
≤ 300 nM

Same lookup for Cc1noc(C)c1-c1cc(N)c2[nH]c(=O)n(Cc3ccccc3)c2c1 , please.
300 to 3000 nM

Same lookup for Cc1noc(C)c1-c1cnc2ncn(Cc3ccc(F)cc3)c2c1 , please.
300 to 3000 nM

----------
Listed here are compounds together with their documented IC50.
Test system: hIL-6 mRNA
PROCEDURE DETAILS: Inhibition of hIL-6 mRNA transcription in LPS-stimulated U937 cells
Type: cell-based
MEASUREMENT CONDITIONS: Homo sapiens, U-937; PMA-differentiated U937 cells, 1 h pretreatment, 1 ug/mL LPS stimulation, 3 h; read-out: IL-6 activity (Inhibition of hIL-6 mRNA Transcription)

Worked cases, answers included:
STRUCTURE STRING	IC50
Cc1noc(C)c1-c1cc(N)c2[nH]c(=O)n(Cc3ccc(O)cc3)c2c1	≤ 300 nM
CC(=O)c1cn(Cc2ccccc2)c2cc(-c3c(C)noc3C)cnc12	300 to 3000 nM
Cc1noc(C)c1-c1cnc2cnn(Cc3ccc(Cl)cc3)c2c1	300 to 3000 nM

Param readout = IC50; param system = hIL-6 mRNA; param query = Cc1noc(C)c1-c1cc([N+](=O)[O-])c2nc(NCc3cccnc3)n(Cc3ccccc3)c2c1 ; response: value
≤ 300 nM

Same lookup for Cc1noc(C)c1-c1cc(C#N)c2[nH]c(=O)n(Cc3ccccc3)c2c1 , please.
300 to 3000 nM

Same lookup for Cc1noc(C)c1-c1ccc2c(c1)N(Cc1ccccc1)C(=O)NC2 , please.
300 to 3000 nM

Same lookup for Cc1noc(C)c1-c1ccc2ccn(Cc3ccc(F)cc3)c2n1 , please.
3000 to 30000 nM

----------
Tested on: hIL-6 mRNA
PROCEDURE DETAILS: Inhibition of hIL-6 mRNA transcription in LPS-stimulated U937 cells
Type: cell-based
MEASUREMENT CONDITIONS: Homo sapiens, U-937; PMA-differentiated U937 cells, 1 h pretreatment, 1 ug/mL LPS stimulation, 3 h; read-out: IL-6 activity (Inhibition of hIL-6 mRNA Transcription)
Listed here are compounds together with their documented IC50.

Worked cases, answers included:
COMPOUND	EXPERIMENTAL SYSTEM	IC50
Cc1noc(C)c1-c1cc2c(cn1)ncn2Cc1ccccc1	hIL-6 mRNA	300 to 3000 nM
Cc1noc(C)c1-c1cc([N+](=O)[O-])c2nc(C)n(CC3CCC3)c2c1	hIL-6 mRNA	300 to 3000 nM
Cc1noc(C)c1-c1cc(N)c2oc(=O)n(Cc3ccccc3)c2c1	hIL-6 mRNA	≤ 300 nM

Field request: IC50 | item: Cc1noc(C)c1-c1cc(N)c2nc(C)n(C(C)c3ccccc3)c2c1 (stereo not drawn)
≤ 300 nM

----------
EXPERIMENTAL SYSTEM: Brd4 bromodomain 1 (BRD4(1)) (Homo sapiens)
PROCEDURE DETAILS: Inhibition of tetra-acetylated histone H4 binding to Brd4 bromodomain 1 (TR-FRET)
MEASUREMENT CONDITIONS: tetra-acetylated histone H4 peptide, first bromodomain of Brd4
pIC50: −log10 of the molar value.
RESULT TYPE: pIC50

STRUCTURE STRING	pIC50
Cn1nccc1-c1cnc2nc(N3CCOCC3)n(Cc3ccccc3)c2c1	5.52 to 6.52
Cc1noc(C)c1-c1cc(N)c2[nH]c(=O)n([C@H](C)c3ccccc3)c2c1	≥ 6.52
Cc1noc(C)c1-c1ccc2c(c1)N(Cc1ccccc1)CC(=O)N2	≥ 6.52
Cc1noc(C)c1-c1cnc2[nH]c(=O)n(CC3CCCC3)c2c1	≥ 6.52

Field request: pIC50 | item: Cc1noc(C)c1-c1cnc2cnn(Cc3ccsc3)c2c1
5.52 to 6.52

----------
Listed here are compounds together with their documented IC50.
System: hIL-6 mRNA
PROCEDURE DETAILS: Inhibition of hIL-6 mRNA transcription in LPS-stimulated U937 cells
Format: cell-based
MEASUREMENT CONDITIONS: Homo sapiens, U-937; PMA-differentiated U937 cells, 1 h pretreatment, 1 ug/mL LPS stimulation, 3 h; read-out: IL-6 activity (Inhibition of hIL-6 mRNA Transcription)

COMPOUND	IC50
Cc1noc(C)c1-c1cc(N)c2nc(N3CCN(C)CC3)n(Cc3ccccc3)c2c1	≤ 300 nM
Cc1noc(C)c1-c1cnc2ncn(C(C)c3ccccc3)c2c1 (centres unmarked)	300 to 3000 nM
Cc1noc(C)c1-c1cc(N)c2ccn(Cc3ccccc3)c2n1	300 to 3000 nM
Cc1noc(C)c1-c1cnc2nc(C)n(Cc3ccc(Cl)cc3)c2c1	300 to 3000 nM
CCNc1nc2ncc(-c3c(C)noc3C)cc2n1CC1CC1	300 to 3000 nM
Cc1noc(C)c1-c1cnc2nc(C)n(Cc3cccs3)c2c1	300 to 3000 nM

Field request: IC50 | item: CC(=O)Nc1cc(-c2c(C)noc2C)cc2c1[nH]c(=O)n2Cc1ccccc1
≤ 300 nM

Same lookup for Cc1noc(C)c1-c1cc(N)c2[nH]c(=O)n(Cc3ccccc3)c2c1 , please.
≤ 300 nM

Same lookup for Cc1noc(C)c1-c1cnc2ncn(Cc3ccc(F)cc3)c2c1 , please.
300 to 3000 nM

Same lookup for CNC(=O)c1nc2ncc(-c3c(C)noc3C)cc2n1Cc1ccccc1 , please.
300 to 3000 nM

Same lookup for Cc1noc(C)c1-c1cnc2[nH]c(=O)n([C@H](C)c3ccccc3)c2c1 , please.
300 to 3000 nM

Same lookup for CCNc1nc2c([N+](=O)[O-])cc(-c3c(C)noc3C)cc2n1C(C)c1ccccc1 (centres unmarked) , please.
≤ 300 nM

Same lookup for Cc1noc(C)c1-c1cnc2cnn(Cc3ccsc3)c2c1 , please.
300 to 3000 nM

Same lookup for Cc1noc(C)c1-c1cc([N+](=O)[O-])c2c(c1)n(Cc1ccccc1)c(=O)n2C , please.
300 to 3000 nM

Same lookup for Cc1noc(C)c1-c1cc([N+](=O)[O-])c2[nH]c(=O)n(Cc3ccccc3)c2c1 , please.
300 to 3000 nM
